From: the supplement of paper PMC8975748

Test system: Saccharomyces cerevisiae BY4741 SeMeCo community
protocol.notes: z-score of subpopulation abundance vs DMSO median, subpopulation auxotrophic for LM; higher = larger share of this subpopulation than in DMSO controls
measurement.parameters: 10 µM; 24 h; SM minimal medium; subpopulation (auxotrophy): LM
Where a name gives a salt, the structure may show the parent alone.
# Lookup of reported z-score of subpopulation abundance keyed by entry
// keep it numeric: no unit symbol after the value

Query block: Would you kindly share the measured z-score of subpopulation abundance for C[C@H]1COc2c(N3CCN(C)CC3)c(F)cc3c(=O)c(C(=O)O)cn1c23 [Levofloxacin hydrate] ?
Result block: 1.34

Query block: Would you kindly share the measured z-score of subpopulation abundance for NC12CC3CC(CC(C3)C1)C2 [Amantadine] ?
Result block: 0.28

Query block: Would you kindly share the measured z-score of subpopulation abundance for C#C[C@]1(O)CC[C@H]2[C@@H]3CCC4=CCCC[C@@H]4[C@H]3CC[C@@]21C [Lynestrenol] ?
Result block: -0.94

Query block: Would you kindly share the measured z-score of subpopulation abundance for COc1ccnc(C[S+]([O-])c2nc3cc(-n4cccc4)ccc3[nH]2)c1C (stereo not drawn) [Ilaprazole] ?
Result block: 0.85

Next:
Query block: Would you kindly share the measured z-score of subpopulation abundance for COc1ccc(C(=O)NCc2ccc(OCCN(C)C)cc2)cc1OC [Itopride hydrochloride] ?
Result block: 0.86

Query block: Would you kindly share the measured z-score of subpopulation abundance for C=C[C@H]1CN2CC[C@H]1C[C@H]2[C@H](O)c1ccnc2ccc(OC)cc12 [Quinine HCl Dihydrate] ?
Result block: -0.52

Query block: Would you kindly share the measured z-score of subpopulation abundance for NC(=NCCCCCCN=C(N)N=C(N)Nc1ccc(Cl)cc1)N=C(N)Nc1ccc(Cl)cc1 [Chlorhexidine?2HCl] ?
Result block: 0.28

Query block: Would you kindly share the measured z-score of subpopulation abundance for NC12CC3CC(CC(C3)C1)C2 [Amantadine HCl] ?
Result block: -0.26

----------
# Lookup of reported z-score of subpopulation abundance keyed by entry
Tested on: Saccharomyces cerevisiae BY4741 SeMeCo community
protocol.notes: z-score of subpopulation abundance vs DMSO median, subpopulation auxotrophic for HLU; higher = larger share of this subpopulation than in DMSO controls
measurement.parameters: 10 µM; 24 h; SM minimal medium; subpopulation (auxotrophy): HLU
// keep it numeric: no unit symbol after the value

Query block: Would you kindly share the measured z-score of subpopulation abundance for `COCC(=O)Nc1cc(Sc2ccccc2)ccc1N=C(NC(=O)OC)NC(=O)OC` ?
Result block: -0.05

Query block: Would you kindly share the measured z-score of subpopulation abundance for `CC[C@@H]1/C=C(\C)C[C@H](C)C[C@H](OC)[C@H]2O[C@@](O)(C(=O)C(=O)N3CCCC[C@H]3C(=O)O[C@H](/C(C)=C/[C@@H]3CC[C@H](Cl)[C@H](OC)C3)[C@H](C)[C@@H](O)CC1=O)[C@H](C)C[C@@H]2OC` ?
Result block: 1.88

Query block: Would you kindly share the measured z-score of subpopulation abundance for CN1[C@@H]2CC[C@H]1C[C@@H](OC(=O)c1c[nH]c3ccccc13)C2 [Tropisetron] ?
Result block: 1.41

Query block: Would you kindly share the measured z-score of subpopulation abundance for `CCn1cc(C(=O)O)c(=O)c2cc(F)c(N3CCNCC3)cc21` ?
Result block: -0.16

Query block: Would you kindly share the measured z-score of subpopulation abundance for CC(C)c1nc(N(C)S(C)(=O)=O)nc(-c2ccc(F)cc2)c1/C=C/[C@@H](O)C[C@@H](O)CC(=O)O [Rosuvastatin Calcium] ?
Result block: 1.41

Next:
Query block: Would you kindly share the measured z-score of subpopulation abundance for `CN1C(C(=O)Nc2ccccn2)=C(O)c2ccccc2S1(=O)=O` ?
Result block: -1.14

Query block: Would you kindly share the measured z-score of subpopulation abundance for O=C1c2cccc3c2[C@H](CCC3)CN1[C@@H]1CN2CCC1CC2 [Palonosetron] ?
Result block: -0.63
